What log10 IC50 was measured for each of the following?
# Experimental system: EGFR^L858R/T790M/C797S (Homo sapiens, UniProt P00533, C797S/L858R/T790M)
# Sequence (P00533 25-1210 T790M/C797S/L858R): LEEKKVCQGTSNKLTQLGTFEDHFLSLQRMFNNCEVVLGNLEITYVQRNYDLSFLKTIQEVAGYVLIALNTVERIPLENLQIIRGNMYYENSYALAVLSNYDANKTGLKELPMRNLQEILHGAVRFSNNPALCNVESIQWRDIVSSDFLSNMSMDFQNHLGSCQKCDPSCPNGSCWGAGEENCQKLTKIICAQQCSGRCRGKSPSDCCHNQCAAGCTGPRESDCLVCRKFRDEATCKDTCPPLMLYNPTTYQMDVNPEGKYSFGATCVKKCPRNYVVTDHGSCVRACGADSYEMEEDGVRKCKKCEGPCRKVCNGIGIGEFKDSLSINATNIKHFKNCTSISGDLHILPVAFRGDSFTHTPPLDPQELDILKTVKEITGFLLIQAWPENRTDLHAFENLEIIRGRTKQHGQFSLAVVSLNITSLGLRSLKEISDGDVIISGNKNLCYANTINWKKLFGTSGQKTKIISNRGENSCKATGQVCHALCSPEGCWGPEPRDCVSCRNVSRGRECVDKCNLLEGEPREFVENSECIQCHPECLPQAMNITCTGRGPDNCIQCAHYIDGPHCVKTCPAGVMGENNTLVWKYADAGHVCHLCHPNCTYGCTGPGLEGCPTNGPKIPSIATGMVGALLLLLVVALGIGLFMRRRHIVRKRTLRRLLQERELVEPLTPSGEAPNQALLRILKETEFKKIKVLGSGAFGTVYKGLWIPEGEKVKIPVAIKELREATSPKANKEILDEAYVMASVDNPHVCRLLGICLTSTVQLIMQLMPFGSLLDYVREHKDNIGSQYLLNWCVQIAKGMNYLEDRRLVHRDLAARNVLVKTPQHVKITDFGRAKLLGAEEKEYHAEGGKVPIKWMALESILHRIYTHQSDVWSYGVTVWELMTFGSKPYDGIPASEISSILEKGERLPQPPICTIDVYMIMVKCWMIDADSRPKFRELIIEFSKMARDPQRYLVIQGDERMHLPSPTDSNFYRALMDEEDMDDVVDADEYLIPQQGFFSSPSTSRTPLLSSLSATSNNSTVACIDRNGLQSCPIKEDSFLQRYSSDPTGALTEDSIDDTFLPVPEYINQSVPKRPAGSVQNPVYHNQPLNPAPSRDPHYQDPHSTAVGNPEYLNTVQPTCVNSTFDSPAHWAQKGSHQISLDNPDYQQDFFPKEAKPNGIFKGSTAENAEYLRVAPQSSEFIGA
# Measurement protocol: ELISA kinase activity inhibition, EGFR L858R/T790M/C797S
# Type: biochemical
# Particulars: ATP 5 μM, read-out: The average IC50 value (nM) for inhibiting the activity of different tyrosine kinases, EGFR^L858R/T790M/C797S
All values: log10 IC50 [nM].

What value of log10 IC50 has been reported for the following molecule? CCS(=O)(=O)n1cc2c3ccc(cc31)OCCCCCCOc1cc(ccc1N1CCOCC1)Nc1ncc(Cl)c-2n1 [reference compound]
1.16

And the next one, `CCS(=O)(=O)n1cc2c3ccc(cc31)OCCCn1ccc(n1)-c1cc(c(OC)cc1N1CCOCC1)Nc1nccc-2n1` ?
2.17

And the next one, CCS(=O)(=O)n1cc2c3ccc(cc31)OCC(C)Cn1cc(cn1)-c1cc(ccc1N1CCOCC1)Nc1ncc(Cl)c-2n1 (centres unmarked) ?
1.48

And the next one, `CCS(=O)(=O)n1cc2c3ccc(cc31)OCCCn1cc(cn1)-c1cc(cc(C3CCCC3)c1N1CCOCC1)Nc1ncc(Cl)c-2n1` ?
2.26

And the next one, `CCS(=O)(=O)n1cc2c3ccc(cc31)OCCCn1cc(cn1)-c1cc(c(OC)cc1N1CCOCC1)Nc1ncc(Cl)c-2n1` ?
1.55

And the next one, `CCS(=O)(=O)n1cc2c3ccc(cc31)OCCCn1cc(cn1)-c1cc(ccc1N1CCOCC1)Nc1ncc(Cl)c-2n1` ?
0.69

And the next one, `CCS(=O)(=O)n1cc2c3ccc(cc31)OCC1(CC1)Cn1cc(cn1)-c1cc(ccc1N1CCOCC1)Nc1ncc(Cl)c-2n1` ?
1.66

And the next one, CCS(=O)(=O)n1cc2c3ccc(cc31)OC(C)CCn1cc(cn1)-c1cc(c(OC)cc1N1CCOCC1)Nc1nccc-2n1 (centres unmarked) ?
1.10

And the next one, `C=C(C)c1cc2cc(c1N1CCOCC1)-c1cnn(c1)CCCOc1ccc3c(cn(S(=O)(=O)CC)c3c1)-c1nc(ncc1Cl)N2` ?
1.77

And the next one, `CCOc1cc(N2CCOCC2)c2cc1Nc1nccc(n1)-c1cn(S(=O)(=O)CC)c3cc(ccc13)OCCCn1cc-2cn1` ?
1.07

And the next one, `CCS(=O)(=O)n1cc2c3ccc(cc31)OCCCn1ccc(n1)-c1cc(c(C(F)(F)F)cc1N1CCOCC1)Nc1nccc-2n1` ?
2.20

And the next one, `CCS(=O)(=O)n1cc2c3ccc(cc31)OCCCn1cc(cn1)-c1cc(c(OC)cc1N1CCOCC1)Nc1nccc-2n1` ?
0.30

And the next one, `CCS(=O)(=O)n1cc2c3ccc(cc31)OCCCn1cc(cn1)-c1cc(c(OC)cc1N1CCOCC1)Nc1ncc(F)c-2n1` ?
2.01

And the next one, `CCS(=O)(=O)n1cc2c3ccc(cc31)OCCCn1ccc(n1)-c1cc(c(OC3CC3)cc1N1CCOCC1)Nc1nccc-2n1` ?
1.99

====

# Experimental system: EGFR^WT (Homo sapiens, UniProt P00533)
# Construct: purchased Eurofins
# Sequence (P00533 25-1210): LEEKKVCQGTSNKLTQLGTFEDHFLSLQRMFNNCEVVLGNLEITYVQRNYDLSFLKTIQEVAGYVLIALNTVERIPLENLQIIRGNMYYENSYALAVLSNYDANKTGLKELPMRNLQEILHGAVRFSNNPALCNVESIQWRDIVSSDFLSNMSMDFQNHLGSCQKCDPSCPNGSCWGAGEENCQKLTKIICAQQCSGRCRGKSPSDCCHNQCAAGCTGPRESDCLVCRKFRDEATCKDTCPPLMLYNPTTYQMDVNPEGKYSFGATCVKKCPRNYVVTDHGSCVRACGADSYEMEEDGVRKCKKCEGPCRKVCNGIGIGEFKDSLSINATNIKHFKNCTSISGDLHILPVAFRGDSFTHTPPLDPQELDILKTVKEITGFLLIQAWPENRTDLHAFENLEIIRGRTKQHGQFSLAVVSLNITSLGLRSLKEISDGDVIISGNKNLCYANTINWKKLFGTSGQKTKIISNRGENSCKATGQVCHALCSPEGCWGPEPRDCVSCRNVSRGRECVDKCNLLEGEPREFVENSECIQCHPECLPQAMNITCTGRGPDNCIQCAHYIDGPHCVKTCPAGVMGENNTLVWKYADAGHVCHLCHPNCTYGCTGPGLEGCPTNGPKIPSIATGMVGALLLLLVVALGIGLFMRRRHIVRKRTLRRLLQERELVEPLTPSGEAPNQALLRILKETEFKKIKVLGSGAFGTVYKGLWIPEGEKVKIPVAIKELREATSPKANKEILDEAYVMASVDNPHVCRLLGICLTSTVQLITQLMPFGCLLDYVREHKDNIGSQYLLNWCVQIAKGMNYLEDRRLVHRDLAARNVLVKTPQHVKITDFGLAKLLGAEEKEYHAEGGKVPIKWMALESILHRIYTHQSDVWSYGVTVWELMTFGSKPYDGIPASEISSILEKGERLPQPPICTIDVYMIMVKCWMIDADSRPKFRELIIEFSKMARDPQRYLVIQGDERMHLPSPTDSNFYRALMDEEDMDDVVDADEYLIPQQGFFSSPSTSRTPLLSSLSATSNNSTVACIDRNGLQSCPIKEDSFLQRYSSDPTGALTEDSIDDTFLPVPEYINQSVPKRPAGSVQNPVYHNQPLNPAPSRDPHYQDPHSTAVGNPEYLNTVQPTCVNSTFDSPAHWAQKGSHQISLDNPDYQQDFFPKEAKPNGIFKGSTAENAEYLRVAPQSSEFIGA
# Measurement protocol: ELISA kinase activity inhibition, wild-type EGFR
# Assay type: biochemical
# Particulars: ATP 5 μM, read-out: The average IC50 value (nM) for inhibiting the activity of different tyrosine kinases, EGFR^WT
What IC50 was measured for each of the following?
Expressed in nM, but write only the number.

What value of IC50 has been reported for the following molecule? CCS(=O)(=O)n1cc2c3ccc(cc31)OCCCn1cc(cn1)-c1cc(c(C)cc1N1CCN(C)CC1)Nc1ncc(Cl)c-2n1 [HC9452]
44.7

And the next one, CCS(=O)(=O)n1cc2c3ccc(cc31)OCCCn1cc(cn1)-c1cc(c(OC)cc1N1CCOCC1)Nc1ncc(F)c-2n1 [WQX-2-79] ?
255

And the next one, CCS(=O)(=O)n1cc2c3ccc(cc31)OCCCCn1cc(cn1)-c1cc(ccc1N1CCOCC1)Nc1ncc(Cl)c-2n1 [HC8714] ?
802

And the next one, CCS(=O)(=O)n1cc2c3ccc(cc31)OCCCn1cc(cn1)-c1cc(c(OC)cc1N1CCOCC1)Nc1nccc-2n1 [HC9591] ?
632
